# Test system: Plasmodium falciparum (K1, resistant to chloroquine)
# assay_info: In vitro growth inhibition assay of P. falciparum
# Type: cell-based
# condition_notes: Plasmodium falciparum, K1, read-out: P. falciparum IC50
recorded_metric: IC50 (nM)
Kindly answer with a numeric value in nM, unit omitted.

I am curious: what IC50 value has been reported for CCN(CC)CCCC(C)Nc1ccnc2cc(Cl)ccc12 (stereo not shown) [chloroquine, reference compound] ?
124
